# targetDesc: Potassium voltage-gated channel subfamily KQT member 2 (Rattus norvegicus)
# measurementNotes: rat KCNQ2 potassium channel inhibitors, primary screen, cell-based, CHO-K1, FluxOR thallium flux, B-score (AID 2156)
# measurementContext: 20 min, at 10 µM
The whole screen tested about 310,000 compounds, of which about 3,400 (1.1%) were called active.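 Rule for the calls: active = fluorescence ratio B-score at most minus 3 library SDs, with starting brightness B-score within 2 library SDs (cut at about -5.5 in these data); inactive = the rest, inconclusive results apart.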 For the sample, actives were picked, then their nearest neighbours and some compounds at random.
Please reply with one of these outcomes: yes = active, no = inactive

>  <compound>
COc1ccc(OCCCC(=O)OC(C)C(=O)Nc2ccccc2[N+](=O)[O-])cc1 (stereo unspecified)

>  <category>
no

$$$$

Problem: Fill in: this test's call for "CCCC(=O)Nc1ccc(Cl)c(NC(=O)c2ccc(Br)o2)c1" is ___
Result: no

Problem: Fill in: this test's call for "O=C(Nc1ccc(Cl)c(Cl)c1)N1CC=C(c2ccccc2)CC1" is ___
Result: yes

Problem: Fill in: this test's call for "Cc1ccccc1OCc1nnc(SCC(=O)N2c3ccccc3Sc3ccc(Cl)cc32)o1" is ___
Result: yes

Problem: Fill in: this test's call for "COc1ccc(-c2ccc3nnc(SCC(=O)Nc4ccc(NC(C)=O)cc4)n3n2)cc1" is ___
Result: no

Problem: Fill in: this test's call for "COc1ccccc1CCC(=O)NNC(=O)c1ccncc1" is ___
Result: no

Problem: Fill in: this test's call for "O=C(Nc1ccccc1[N+](=O)[O-])C1C(c2ccccc2)=C1c1ccccc1" is ___
Result: yes

Problem: Fill in: this test's call for "COC(=O)c1ccc(N2CCOCC2)c(NC(=O)c2ccc(Br)o2)c1" is ___
Result: no

Problem: Fill in: this test's call for "O=C(Nc1ccccc1)N1CCN(C(=O)Nc2ccccc2)CC1" is ___
Result: no

Problem: Fill in: this test's call for "O=C(Nc1ccccc1-c1ccccc1)c1ccccc1[N+](=O)[O-]" is ___
Result: no

Problem: Fill in: this test's call for COc1ccc(NC(=O)N2CCCC2C(=O)NCc2ccccc2Cl)cc1 (stereo unspecified) is ___
Result: no
